Target: Nonstructural protein 3 (Zika virus)
Assay: Functional biochemical assay to identify treatments for viral infectious disease that targets Zika NS2B-NS3 protease. Utilizing a direct enzyme activity measurement method, reading the fluorescence intensity is used to characterize the relative potency of inhibitors as IC50.
Design: species or system PRVABC59
Experimental endpoint: IC50

Record excerpt, results attached:
>  <Given smiles>
Cc1cnn(-c2cc(C(=O)O)c(NS(=O)(=O)c3ccc(Oc4ccccc4Cl)cc3)cc2F)c1

>  <IC50>
10.6 µM

$$$$
>  <Given smiles>
N#Cc1cc(Cl)cc([C@H](C#N)Nc2ccc3c(c2)CNC3)c1

>  <IC50>
0.433 µM

$$$$
>  <Given smiles>
OC1(c2ccccc2)CCN(Cc2c[nH]c3ccccc23)CC1

>  <IC50>
> 99.5 µM

$$$$
>  <Given smiles>
[O-][S@@+](Cc1nc(-c2cccs2)no1)c1cccs1

>  <IC50>
> 99.5 µM

$$$$
>  <Given smiles>
CC(C)(C)OC(=O)Cc1cc(CN)cc(NC(=O)c2cc(Cl)cc(NC(=O)OCc3ccccc3)c2)c1

>  <IC50>
> 99.5 µM

$$$$

Lookup result for CCn1ccnc(N(C)[C@@H](CO)Cc2c[nH]c3ccccc23)c1=O ; measured IC50: > 99.5 µM

Lookup result for O=C(O)c1cc(Cl)ccc1S(=O)(=O)N[C@H]1CC[C@@H](Oc2ccccc2)CC1 ; measured IC50: > 99.5 µM

Lookup result for O=C(Nc1ccc2c(c1)CNC2)c1cc(F)cc(-c2cnc3n2CCC3)c1 ; measured IC50: 0.236 µM

---

IC50 by entry:
Target: Nonstructural protein 3 (Zika virus, UniProt A0A024AXB9)
Sequence (A0A024AXB9 whole entry): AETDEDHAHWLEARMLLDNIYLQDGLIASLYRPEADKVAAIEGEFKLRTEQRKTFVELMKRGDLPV
Test: Functional biochemical assay to identify treatments for viral infectious disease that targets Zika NS2B-NS3 protease. Utilizing a direct enzyme activity measurement method, reading the fluorescence intensity is used to characterize the relative potency of inhibitors as IC50. Synthetic construct has been made based on Zika virus (strain PRVABC59) by Centre for Medicines Discovery, University of Oxford, and the assay has been performed by Enamine biological services, Bienta Ltd.The protocol is publicly available: dx.doi.org/10.17504/protocols.io.36wgqn273gk5/v1
Express your answer in µM, writing the number without its unit.

Item: O=C(Nc1ccc2c(c1)CNC2)c1cc(Cl)cc2[nH]c(-c3ccccc3)nc12 | System: Nonstructural protein 3 (Zika virus, UniProt A0A024AXB9) | IC50: 2.52

Item: O=C(NCC(F)F)[C@H](Nc1ccc2c(c1)CNC2)c1cc(Br)ccc1C1CC1 | System: Nonstructural protein 3 (Zika virus, UniProt A0A024AXB9) | IC50: 0.636

Item: O=C(NCC(F)F)[C@H](Nc1ccc2c(c1)CNC2)c1cc(Br)cc2nc[nH]c12 | System: Nonstructural protein 3 (Zika virus, UniProt A0A024AXB9) | IC50: 0.201

Item: COC(=O)[C@H]1NCc2cc(NC(=O)c3cc(F)cc4[nH]ncc34)ccc21 | System: Nonstructural protein 3 (Zika virus, UniProt A0A024AXB9) | IC50: 21.5

---

Target: Nonstructural protein 3 (Zika virus, UniProt A0A024AXB9)
Experiment: Functional biochemical assay to identify treatments for viral infectious disease that targets Zika NS2B-NS3 protease. Utilizing a direct enzyme activity measurement method, reading the fluorescence intensity is used to characterize the relative potency of inhibitors as IC50.
Design: species or system PRVABC59
pIC50: −log10 of the molar value.
Experimental endpoint: pIC50

>  <Given smiles>
O=C(O)c1cc2cc(-c3cccc([C@H]4CNCCO4)c3)ccc2[nH]1

>  <Assay value>
< 4.00

$$$$
>  <Given smiles>
FC(F)(F)c1nc(CNCc2cocn2)cs1

>  <Assay value>
< 4.00

$$$$
>  <Given smiles>
O=C(Nc1cc(Cl)cc([C@H](Nc2cccc(-c3nn[nH]n3)c2)C(=O)N[C@H]2CCOC2)c1)OCc1ccccc1

>  <Assay value>
< 4.00

$$$$
>  <Given smiles>
Cc1c(C(=O)NCc2cccc(C3COC3)c2)cc(C2CC2)n1C

>  <Assay value>
< 4.60

$$$$

Lookup result for C=CC[C@H](Nc1cccc(-c2nn[nH]n2)c1)c1cc(Cl)cc2[nH]ncc12 ; measured pIC50: < 4.00

---

Target: Nonstructural protein 3 (Zika virus, UniProt A0A024AXB9)
Assay: Functional biochemical assay to identify treatments for viral infectious disease that targets Zika NS2B-NS3 protease. Utilizing a direct enzyme activity measurement method, reading the fluorescence intensity is used to characterize the relative potency of inhibitors as IC50.
Parameters: species or system PRVABC59
pIC50 by entry:
Scale for pIC50: -log10 of concentration given in mol/L; no unit attached.

>  <Given smiles>
O=C(Nc1ccc2c(c1)CN[C@H]2C(=O)O)c1cc(F)cc2[nH]ncc12

>  <Experimental endpoint>
pIC50

>  <Assay value>
5.88

$$$$

From here, focus on the item given below.
Lookup result for NCc1ccc2c(c1)[C@H](N1CCCC1=O)C[C@H](c1cc(Cl)cc(NC(=O)OCc3ccccc3)c1)N2 ; measured pIC50: 4.57

---

Molecular target: Nonstructural protein 3 (Zika virus, UniProt A0A024AXB9)
Test: Functional biochemical assay to identify treatments for viral infectious disease that targets Zika NS2B-NS3 protease. Utilizing a direct enzyme activity measurement method, reading the fluorescence intensity is used to characterize the relative potency of inhibitors as IC50.
Parameters: species or system PRVABC59
Experimental endpoint: IC50

Record excerpt, results attached:
>  <Given smiles>
O=C(O)c1cc2cc(-c3cccc([C@H]4COCCN4)c3)ccc2[nH]1

>  <Assay value>
> 99.5 µM

$$$$
>  <Given smiles>
N=C(N)NCCc1ccc(OC(=O)Nc2ccccc2)cc1

>  <Assay value>
> 100 µM

$$$$
>  <Given smiles>
CCn1cc(C(=O)O)nc(N2CC[C@@H](CO)C2)c1=O

>  <Assay value>
> 99.5 µM

$$$$
>  <Given smiles>
CCCn1nc(C)c2c(C(=O)Nc3cccc(CN)c3)cc(C)nc21

>  <Assay value>
> 99.5 µM

$$$$
>  <Given smiles>
Cc1nn(C)cc1S(=O)(=O)N[C@@H](C(=O)Nc1cccc(CN)c1)c1ccc(OCc2ccccc2)cc1

>  <Assay value>
> 99.5 µM

$$$$
>  <Given smiles>
CCn1cc(-c2ccc3nn(C)cc3c2)nc(N2CC[C@@H](CO)C2)c1=O

>  <Assay value>
> 99.5 µM

$$$$

Lookup result for N#C[C@H](Nc1ccc2c(c1)CNC2)c1cncc2ccccc12 ; measured IC50: 3.87 µM

Lookup result for Cn1ncc(C(=O)Nc2cc(-c3cccnc3)ccn2)c1C1CC1 ; measured IC50: 20.8 µM

Lookup result for CCn1nccc1-c1cn(CC)c(=O)c(N2CC[C@@H](CO)C2)n1 ; measured IC50: > 99.5 µM

---

Target: Nonstructural protein 3 (Zika virus, UniProt A0A024AXB9)
Test: Functional biochemical assay to identify treatments for viral infectious disease that targets Zika NS2B-NS3 protease. Utilizing a direct enzyme activity measurement method, reading the fluorescence intensity is used to characterize the relative potency of inhibitors as IC50. Synthetic construct has been made based on Zika virus (strain PRVABC59) by Centre for Medicines Discovery, University of Oxford, and the assay has been performed by Stanford University.The protocol is publicly available: dx.doi.org/10.17504/protocols.io.x54v9r83zv3e/v1
pIC50 by entry:
Scale for pIC50: -log10 of concentration given in mol/L; no unit attached.

Record excerpt, results attached:
>  <Given smiles>
Nc1ccc2ccc(B(O)O)cc2c1

>  <pIC50>
5.60

$$$$
>  <Given smiles>
Cc1nc(C=O)c2ccccn12

>  <pIC50>
4.19

$$$$
>  <Given smiles>
Cc1c(C=O)c2ccccn2c1C(=O)c1ccncc1

>  <pIC50>
4.44

$$$$

Lookup result for O=Cc1ccc(N2CCC(C(=O)O)CC2)o1 ; measured pIC50: 4.52

Lookup result for O=Cc1ccc(N2CCCCC2)cc1 ; measured pIC50: 4.30

---

Target: UniProt:A0A024AXB9
Assay: Functional biochemical assay to identify treatments for viral infectious disease that targets Zika NS2B-NS3 protease. Utilizing a direct enzyme activity measurement method, reading the fluorescence intensity is used to characterize the relative potency of inhibitors as IC50.
Set-up: species or system PRVABC59
IC50 by entry:

Record excerpt, results attached:
>  <Given smiles>
O=C(O)CN(c1ccc(Cl)cc1)S(=O)(=O)c1ccc(Oc2ccccc2Cl)cc1

>  <Target entity>
UniProt:A0A024AXB9

>  <IC50>
> 99.5 µM

$$$$
>  <Given smiles>
c1csc(-c2nnc(Sc3ncnc4sccc34)o2)c1

>  <Target entity>
UniProt:A0A024AXB9

>  <IC50>
> 99.5 µM

$$$$

From here, focus on the item given below.
Lookup result for Clc1snnc1CN1CCC(c2nc3ccccc3o2)CC1 ; measured IC50: > 99.5 µM

---

Biological target: Nonstructural protein 3 (Zika virus)
Assay: Functional biochemical assay to identify treatments for viral infectious disease that targets Zika NS2B-NS3 protease. Utilizing a direct enzyme activity measurement method, reading the fluorescence intensity is used to characterize the relative potency of inhibitors as IC50.
Parameters: species or system PRVABC59
Experimental endpoint: IC50

Record excerpt, results attached:
>  <Given smiles>
O=C(Nc1ccc2c(c1)CNC2)c1cc(Cl)cc2[nH]c(C3(n4ccnn4)CC3)nc12

>  <IC50>
0.765 µM

$$$$
>  <Given smiles>
O=C(Nc1cc(Cl)cc(C(=O)NCCc2nnn[nH]2)c1)OCc1ccccc1

>  <IC50>
> 99.5 µM

$$$$
>  <Given smiles>
CCn1cc(-c2cncc(OC)c2)nc(N2CC[C@@H](CO)C2)c1=O

>  <IC50>
> 99.5 µM

$$$$
>  <Given smiles>
CN(C)Cc1cc(CNC(=O)[C@@H](NC(=O)OCc2ccccc2)c2ccc(OCc3ccccc3)cc2)ccc1F

>  <IC50>
> 99.5 µM

$$$$

Lookup result for O=c1c(N2CC[C@H](CO)C2)nccn1C1CC1 ; measured IC50: > 99.5 µM

Lookup result for Cc1c(C(=O)Nc2cc(C(=O)N3CC(CO)C3)ccn2)cc(C2CC2)n1C ; measured IC50: > 25 µM
